Entries and their Km values follow.
biological target: L286M mutant luciferase (Photinus pyralis, UniProt P08659, L286M); construct: The full firefly (Photinus pyralis) luciferase gene was PCR amplified from pGL3 (Promega); GST (N, cleaved yes); made in house; host or cells: E. coli JM109; test: Titration assay with purified protein; assay type: biochemical; details: 3 minutes post-substrate addition, read-out: Apparent Km
Sequence (P08659 whole entry L286M): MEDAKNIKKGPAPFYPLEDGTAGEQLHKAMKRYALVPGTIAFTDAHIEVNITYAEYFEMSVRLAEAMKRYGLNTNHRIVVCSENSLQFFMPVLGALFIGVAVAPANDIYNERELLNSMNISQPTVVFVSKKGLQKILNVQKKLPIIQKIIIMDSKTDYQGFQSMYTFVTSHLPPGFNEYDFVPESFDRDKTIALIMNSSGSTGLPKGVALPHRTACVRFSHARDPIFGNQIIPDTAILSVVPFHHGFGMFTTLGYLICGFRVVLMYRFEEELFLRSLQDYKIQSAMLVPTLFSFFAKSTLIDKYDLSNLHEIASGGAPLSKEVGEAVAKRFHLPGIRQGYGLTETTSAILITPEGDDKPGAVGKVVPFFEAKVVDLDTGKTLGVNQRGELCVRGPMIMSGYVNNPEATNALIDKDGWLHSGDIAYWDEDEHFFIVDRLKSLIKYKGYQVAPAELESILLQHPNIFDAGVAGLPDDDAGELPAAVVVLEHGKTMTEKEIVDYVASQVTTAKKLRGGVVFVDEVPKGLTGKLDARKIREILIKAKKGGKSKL
Provide the reading as a plain figure in µM.

Problem: // map CN1CCc2cc3nc(C4=N[C@@H](C(=O)O)CS4)sc3cc21 [CycLuc2] to recorded Km (system: L286M mutant luciferase (Photinus pyralis, UniProt P08659, L286M))
Solution: 0.1

Problem: // map O=C(O)[C@H]1CSC(c2nc3cc4c(cc3s2)NCC4)=N1 [CycLuc1] to recorded Km (system: L286M mutant luciferase (Photinus pyralis, UniProt P08659, L286M))
Solution: 0.46

Problem: // map CN(C)c1ccc2nc(C3=NC(C(=O)O)CS3)sc2c1 (stereo not shown) [6′-Me2NLH2] to recorded Km (system: L286M mutant luciferase (Photinus pyralis, UniProt P08659, L286M))
Solution: 0.08

Field: next compound
Problem: // map CNc1ccc2nc(C3=NC(C(=O)O)CS3)sc2c1 (stereo not shown) [6′-MeNHLH2, Monomethylaminoluciferin] to recorded Km (system: L286M mutant luciferase (Photinus pyralis, UniProt P08659, L286M))
Solution: 0.08

* * *

target: WT luciferase (Photinus pyralis); construct: The full firefly (Photinus pyralis) luciferase gene was PCR amplified from pGL3 (Promega); GST (N, cleaved yes); made in house; host or cells: E. coli JM109; type: biochemical; conditions: Table 2
Sequence (P08659 whole entry): as the sequence (P08659 whole entry L286M) above, with M286L counted along it
Entries and their Wavelength at Max. Emission values follow.
Provide the reading as a plain figure in nm.

Below: 3 compounds and their reported Wavelength at Max. Emission.
Problem: Suppose we examine the compound O=C(O)[C@H]1CSC(c2nc3ccc(O)cc3s2)=N1 [D-Luciferin, D-luciferin] ; what Wavelength at Max. Emission value has been reported?
Solution: 554

Problem: Suppose we examine the compound O=C(O)[C@H]1CSC(c2nc3cc4c(cc3s2)NCC4)=N1 [CycLuc1] ; what Wavelength at Max. Emission value has been reported?
Solution: 601

Problem: Suppose we examine the compound Nc1ccc2nc(C3=N[C@@H](C(=O)O)CS3)sc2c1 [6′-NH2LH2, 6′-aminoluciferin] ; what Wavelength at Max. Emission value has been reported?
Solution: 595

Others:
Problem: Suppose we examine the compound O=C(O)C1CSC(c2nc3cc4c(cc3s2)NCCO4)=N1 (stereo not shown) [CycLuc3] ; what Wavelength at Max. Emission value has been reported?
Solution: 594

* * *

Biological target: S347A mutant luciferase (Photinus pyralis, UniProt P08659, S347A)
Construct: The full firefly (Photinus pyralis) luciferase gene was PCR amplified from pGL3 (Promega); GST (N, cleaved yes); made in house; host or cells: E. coli JM109
Sequence (P08659 whole entry S347A): as the sequence (P08659 whole entry L286M) above, with M286L, S347A counted along it
Format: biochemical
Conditions: purified protein, 3 minutes post-substrate addition, read-out: Apparent Km
Protocol: The PCR product was cloned into the BamH1 and NotI sites of pGEX6P-1 for bacterial expression. Mutant proteins were created using the Quickchange site-directed mutagenesis kit (Stratagene). […] Luminescence assays in 96-well plates were initiated by adding 30 μL 2× substrate in 20 mM Tris pH 7.6, 0.1 mM EDTA, 8 mM MgSO4, 4 mM ATP, and 1 mM TCEP to 30 μL of 20 nM purified luciferase in 20 mM Tris pH 7.6, 0.1 mM EDTA, 1 mM TCEP and 0.4 mg/mL BSA.
OUTCOME MEASURE: Km (µM)
Provide the reading as a plain figure in µM.

Below: 3 compounds and their reported Km.
Problem: // map CN(C)c1ccc2nc(C3=NC(C(=O)O)CS3)sc2c1 (stereo not shown) to recorded Km (system: S347A mutant luciferase (Photinus pyralis, UniProt P08659, S347A))
Solution: 0.24

Problem: // map `CN1CCc2cc3nc(C4=N[C@@H](C(=O)O)CS4)sc3cc21` to recorded Km (system: S347A mutant luciferase (Photinus pyralis, UniProt P08659, S347A))
Solution: 0.11

Problem: // map CNc1ccc2nc(C3=NC(C(=O)O)CS3)sc2c1 (stereo not shown) to recorded Km (system: S347A mutant luciferase (Photinus pyralis, UniProt P08659, S347A))
Solution: 0.47

Field: next compound
Problem: // map `O=C(O)[C@H]1CSC(c2nc3cc4c(cc3s2)NCC4)=N1` to recorded Km (system: S347A mutant luciferase (Photinus pyralis, UniProt P08659, S347A))
Solution: 2.68

Origin of the recorded values: patent US9587266B2
